Assay: chemical genetic growth profiling, strain panel (AID 1159580);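 also: tested at 20 µM; growth read once vehicle control cultures reached saturation at 30 °C; 1 = growth at the plate median or of vehicle wells; lower values mean less growth of the strain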
Settings: S. cerevisiae deletion strains, growth OD, locus YMR219W, strain ESC1
Screen size: about 5,500 compounds; about 2,000 (36%) were called active. Not shown: some 18% with an inconclusive outcome. Rule as the data show it: active = normalized growth mostly below about 0.91 (no sharp cut-off); inconclusive = no clear call, values can overlap the other calls; inactive = mostly above about 0.92. This is one part of the list.
Outcomes you can answer with include only these: 1 (active), 0 (inactive)

Answered examples (10):
> print(dat)
                                smiles.entry  group.label
 1              CCC(=O)c1c(C)c(C)c(C)c(C)c1C            0
 2           N/C(=N/O)c1csc(-c2ccc(F)cc2F)n1            0
 3                          NNC(=O)c1ccccc1O            0
 4                     O=C(O)CCOc1ccc(Cl)cc1            1
 5  O=[N+]([O-])c1cccc(-c2csc(Nc3ccccc3Cl)n2)c1            0
 6  Cc1c(S(=O)(=O)c2ccc(Cl)cc2)csc1C(=O)Nc1ccc(N2CCOCC2)c(Cl)c1            0
 7                  N#Cc1csc([N+](=O)[O-])c1            1
 8        COc1ccc(C=C2C(=O)NC(=S)NC2=O)cc1Br            0
 9                 COC(=O)COc1ccc(C(C)=O)cc1            0
10                COc1ccc(C=Nc2ccc(O)cc2)cc1            0

### Prompt Record lookup: outcome of this test for COc1ccc(N=Cc2ccccc2O)cc1 ?
### Response 0

### Prompt Record lookup: outcome of this test for FC(F)(F)c1cc(-n2c(CCc3nc(-c4ccc(Cl)cc4)no3)n[nH]c2=S)cc(C(F)(F)F)c1 ?
### Response 0

### Prompt Record lookup: outcome of this test for Cc1ccc(/C(N)=N\O)cc1F ?
### Response 0

###

Assay: chemical genetic growth profiling, strain panel (AID 1159580);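 also: tested at 20 µM; growth read once vehicle control cultures reached saturation at 30 °C; 1 = growth at the plate median or of vehicle wells; lower values mean less growth of the strain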
Settings: S. cerevisiae deletion strains, growth OD, locus YOL147C, strain pex11
Out of some 5,500 compounds screened, about 2,000 (36%) were called active. About 18% were inconclusive and are not listed. Cut-off read from the data, not from the text of the source: active = normalized growth mostly below about 0.91 (no sharp cut-off); inconclusive = no clear call, values can overlap the other calls; inactive = mostly above about 0.92. This is one part of the list.
Outcomes you can answer with include only these: label 1 = active, label 0 = inactive

> print(dat)
                                   compound  group.label
1  C[C@H](CCC(=O)O)[C@H]1CCC2C3C(CC[C@@]21C)[C@@]1(C)CC[C@@H](O)C[C@H]1C[C@H]3O (stereo not given in full)      label 1

### Prompt Record lookup: outcome of this test for N[C@H](Cc1cc(I)c(Oc2ccc(O)c(I)c2)c(I)c1)C(=O)O ?
### Response label 0

### Prompt Record lookup: outcome of this test for C=C1C(C2(C)C=CC(=O)C(C)(C)C2CC(=O)OC)CC[C@@]2(C)[C@H](c3ccoc3)OC(=O)C3OC132 (stereo not given in full) ?
### Response label 0

### Prompt Record lookup: outcome of this test for N[C@H](Cc1ccccc1)C(=O)O ?
### Response label 0

### Prompt Record lookup: outcome of this test for NS(=O)(=O)c1cc2c(cc1Cl)NC(C1CC3C=CC1C3)NS2(=O)=O (stereo not given) ?
### Response label 0

### Prompt Record lookup: outcome of this test for CC(=O)OCC(=O)[C@@]1(O)[C@H](OC(C)=O)CC2C3CCC4=CC(=O)C=C[C@]4(C)[C@@]3(F)[C@@H](O)C[C@@]21C (stereo not given in full) ?
### Response label 0

### Prompt Record lookup: outcome of this test for C=C1C2CCC3(C)C(c4ccoc4)OC(=O)CC13OC1CC(OC(C)=O)C(C)(C)C(CC(=O)OC)C12C (stereo not given) ?
### Response label 0

### Prompt Record lookup: outcome of this test for C=C1[C@H]2CC[C@@]3(C)[C@H](c4ccoc4)OC(=O)C[C@]13O[C@H]1C[C@H](O)C(C)(C)[C@H](CC(=O)OC)[C@]12C ?
### Response label 0

### Prompt Record lookup: outcome of this test for CC12CC3CC(C)(C1)CC(N)(C3)C2 ?
### Response label 0

### Prompt Record lookup: outcome of this test for CSc1ccc2c(c1)N(CCC1CCCCN1C)c1ccccc1S2 (stereo not given) ?
### Response label 1

### Prompt Record lookup: outcome of this test for C=C1C2CC[C@@]3(C)[C@H](c4ccoc4)OC(=O)C[C@]13O[C@H]1CC(=O)C(C)(C)C(CC(=O)OC)[C@@]21C (stereo not given in full) ?
### Response label 0

### Prompt Record lookup: outcome of this test for C=C1C2CC[C@@]3(C)[C@H](c4ccoc4)OC(=O)C[C@]13O[C@H]1CC(O)C(C)(C)C(CC(=O)OC)[C@@]21C (stereo not given in full) ?
### Response label 0

### Prompt Record lookup: outcome of this test for N[C@@H](Cc1cc(I)c(Oc2ccc(O)c(I)c2)c(I)c1)C(=O)O ?
### Response label 0

### Prompt Record lookup: outcome of this test for N[C@@H](Cc1cc(I)c(Oc2cc(I)c(O)c(I)c2)c(I)c1)C(=O)O ?
### Response label 1

### Prompt Record lookup: outcome of this test for NC(Cc1ccc(F)cc1)C(=O)O (stereo not given) ?
### Response label 0

### Prompt Record lookup: outcome of this test for O=c1[nH]cnc2[nH]ncc12 ?
### Response label 0

### Prompt Record lookup: outcome of this test for CCCCCC1C(=O)CCC1CC(=O)OC (stereo not given) ?
### Response label 0

### Prompt Record lookup: outcome of this test for CCCCCC1C(=O)CCC1CC(=O)O (stereo not given) ?
### Response label 0

### Prompt Record lookup: outcome of this test for O=c1cc(-c2ccccc2)oc2cc(O)c(O)c(O)c12 ?
### Response label 1

### Prompt Record lookup: outcome of this test for COc1cc2c(cc1O)C(Cc1ccc(O)cc1)N(C)CC2 (stereo not given) ?
### Response label 0
